# Measurement notes: Inhibition of SDS-activated 20S proteasome activity in rabbit muscle
# Type: tissue-based, Oryctolagus cuniculus, Muscle tissue
Measured endpoint: pKi

CC(C)CC(NC(=O)[C@H](Cc1ccccc1)NC(=O)CCc1ccccc1)B(O)O (single isomer, unassigned) | 9.82
CC(C)CC(NC(=O)[C@H](Cc1cccc2ccccc12)NC(=O)N1CCOCC1)B(O)O (single isomer, unassigned) | 9.14
CC(C)C[C@H](NC(=O)[C@H](Cc1cccnc1)NC(=O)N1CCOCC1)B(O)O | 8.89
CC(C)C[C@H](NC(=O)[C@H](Cc1cccc2ccccc12)NS(C)(=O)=O)B1OCCNCCO1 | 9.55

// provenance: ChEMBL document CHEMBL1137708
